FYI, the data here is from the supplement of paper PMC7877785.

experiment: self-splicing fitness, log relative to wild type (ln ratio); higher = more splicing; Tetrahymena group I intron in knt gene, E. coli kanamycin selection, DiMSum; sequences stand for … in CUCUCU…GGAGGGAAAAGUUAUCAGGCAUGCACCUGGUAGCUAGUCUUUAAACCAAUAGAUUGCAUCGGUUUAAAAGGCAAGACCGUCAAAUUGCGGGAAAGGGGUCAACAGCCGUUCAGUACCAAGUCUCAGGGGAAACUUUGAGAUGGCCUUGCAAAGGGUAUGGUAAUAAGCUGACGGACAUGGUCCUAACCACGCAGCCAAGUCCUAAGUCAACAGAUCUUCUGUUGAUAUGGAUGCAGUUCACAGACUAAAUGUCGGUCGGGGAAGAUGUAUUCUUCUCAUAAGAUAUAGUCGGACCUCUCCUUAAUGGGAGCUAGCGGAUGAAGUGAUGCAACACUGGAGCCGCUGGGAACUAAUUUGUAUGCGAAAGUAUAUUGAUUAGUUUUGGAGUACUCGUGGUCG; settings: 37 °C;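 further: selection with 25 µg/mL kanamycin versus none on LB agar overnight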
OBSERVED PROPERTY: self-splicing fitness (ln)
Respond with the number and no other words.

Q: # self-splicing fitness (ln) lookup, item "UUAUAGCAAUAUUACGAACU"
A: -0.944

Q: Same read-out for "GCAUAGCAAUAUUACGUAUG" ?
A: -2.44

Q: Same read-out for "UGAAAGCAAUAUUACGGACG" ?
A: 0.54

Q: Same read-out for "AUGUAGCAAUAUUACGAGUC" ?
A: -3.28

Q: Same read-out for "UUGGAGCAAUAUUACGCGCG" ?
A: -0.8

Q: Same read-out for "GGGAAGCAAUAUUACGGUGG" ?
A: -2

Q: Same read-out for "AAACAGCAAUAUUACGGACU" ?
A: -0.406

Q: Same read-out for "GAGCAGCAAUAUUACGCAAC" ?
A: -2.22

Q: Same read-out for "UGCAAGCAAUAUUACGUUGA" ?
A: -1.32

Q: Same read-out for "AAGGAGCAAUAUUACGUGAU" ?
A: -2.45

Q: Same read-out for "CAUCAGCAAUAUUACGAGAU" ?
A: -3.71

Q: Same read-out for "UUGUAGCAAUAUUACGAGUC" ?
A: -2.67

Q: Same read-out for "UAACAGCAAUAUUACGGGUG" ?
A: -0.256

Q: Same read-out for "UCAGAGCAAUAUUACGUAGU" ?
A: -2.88

Q: Same read-out for "GCACAGCAAUAUUACGUGCU" ?
A: -2.75

Q: Same read-out for "UAUUAGCAAUAUUACGACCG" ?
A: -0.0729

Q: Same read-out for "GUGAAGCAAUAUUACGUCGA" ?
A: 0.751

Q: Same read-out for "CCCCAGCAAUAUUACGGGGA" ?
A: -3

Q: Same read-out for "AACAAGCAAUAUUACGCCUA" ?
A: 0.231

Q: Same read-out for "GUGCAGCAAUAUUACGGAGC" ?
A: -1.97

Q: Same read-out for "AUUCAGCAAUAUUACGACAU" ?
A: 0.365

Q: Same read-out for "UCGAAGCAAUAUUACGUAAG" ?
A: -0.0359

Q: Same read-out for "GCUUAGCAAUAUUACGAGCC" ?
A: -1.53

Q: Same read-out for "GGUUAGCAAUAUUACGUUAU" ?
A: -0.954

Q: Same read-out for "GCCUAGCAAUAUUACGUAGC" ?
A: -0.445

Q: Same read-out for "UACGAGCAAUAUUACGGCAC" ?
A: -2.53

Q: Same read-out for "AUAGAGCAAUAUUACGCGUG" ?
A: -1.09

Q: Same read-out for "UAGAAGCAAUAUUACGAAAU" ?
A: -1.95

Q: Same read-out for "UACGAGCAAUAUUACGCAUG" ?
A: -2.25

Q: Same read-out for "CGACAGCAAUAUUACGAACA" ?
A: -0.404

Q: Same read-out for "GGAGAGCAAUAUUACGAUUU" ?
A: 0.185

Q: Same read-out for "CACUAGCAAUAUUACGCCGA" ?
A: -1.49

Q: Same read-out for "UCACAGCAAUAUUACGGGUA" ?
A: -0.772

Q: Same read-out for "UCCUAGCAAUAUUACGUCCU" ?
A: -1.92
